Target: PITSLRE
Test: binding to immobilized V16742 (IVA1/IVA2, HeLa lysate, MS)
Parameters: species or system human
Details: Experiment 2, read-out: Kd
measuredMetric: Kd (µM)
Answers are plain numbers, in µM.

Query: Kd; subject: `CC(C)n1c(=O)ccc2cnc(Nc3ccc(OCCN)cc3)nc21`
66.7

----------
Molecular target: ACAD10 (Homo sapiens, UniProt Q6JQN1)
Sequence (Q6JQN1 whole entry): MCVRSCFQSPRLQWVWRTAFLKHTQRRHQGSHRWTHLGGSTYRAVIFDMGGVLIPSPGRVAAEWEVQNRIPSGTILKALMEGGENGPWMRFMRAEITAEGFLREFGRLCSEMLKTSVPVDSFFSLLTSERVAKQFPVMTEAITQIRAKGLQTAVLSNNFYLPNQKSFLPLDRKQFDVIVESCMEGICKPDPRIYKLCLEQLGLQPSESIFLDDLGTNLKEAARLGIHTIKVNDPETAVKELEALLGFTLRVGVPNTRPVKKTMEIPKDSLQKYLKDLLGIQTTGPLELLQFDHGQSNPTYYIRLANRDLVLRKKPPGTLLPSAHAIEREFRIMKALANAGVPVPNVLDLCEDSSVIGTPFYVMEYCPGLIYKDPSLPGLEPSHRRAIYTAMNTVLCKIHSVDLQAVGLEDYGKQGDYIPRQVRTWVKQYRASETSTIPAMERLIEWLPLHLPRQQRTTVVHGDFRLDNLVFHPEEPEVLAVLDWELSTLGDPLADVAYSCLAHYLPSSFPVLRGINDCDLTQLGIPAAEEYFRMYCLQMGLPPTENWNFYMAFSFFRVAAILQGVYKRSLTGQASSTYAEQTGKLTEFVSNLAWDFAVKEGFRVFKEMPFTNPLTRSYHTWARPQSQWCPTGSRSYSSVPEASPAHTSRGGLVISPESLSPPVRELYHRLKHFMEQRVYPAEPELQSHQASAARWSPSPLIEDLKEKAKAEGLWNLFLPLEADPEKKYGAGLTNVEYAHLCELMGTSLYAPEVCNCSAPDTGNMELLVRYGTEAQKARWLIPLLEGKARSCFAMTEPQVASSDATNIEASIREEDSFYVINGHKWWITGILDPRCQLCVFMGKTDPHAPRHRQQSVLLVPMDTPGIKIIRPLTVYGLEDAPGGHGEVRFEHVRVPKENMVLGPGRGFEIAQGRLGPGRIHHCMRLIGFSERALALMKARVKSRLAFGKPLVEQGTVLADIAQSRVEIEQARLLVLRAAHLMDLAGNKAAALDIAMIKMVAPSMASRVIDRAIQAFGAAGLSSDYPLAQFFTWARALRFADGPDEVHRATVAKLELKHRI
Test: binding to AX14596 beads (HeLa lysate, SILAC MS)
measuredMetric: pKi
One number for each entry, as −log10 of the molar value.

Find the measured pKi: item `COc1cc2ncnc(Nc3ccc(F)c(Cl)c3)c2cc1OCCCN` , target or system ACAD10 (Homo sapiens, UniProt Q6JQN1).
3.97

----------
Biological target: APRT (IPI00218693) (Homo sapiens, UniProt P07741)
Construct: endogenous in cells
Sequence (P07741 1-180): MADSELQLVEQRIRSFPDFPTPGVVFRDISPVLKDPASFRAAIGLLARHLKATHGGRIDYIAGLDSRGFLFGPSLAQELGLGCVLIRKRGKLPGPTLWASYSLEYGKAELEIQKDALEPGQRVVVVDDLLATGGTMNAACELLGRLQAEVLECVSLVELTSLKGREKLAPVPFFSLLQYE
Assay: binding to VI16742 beads (HeLa lysate, SILAC MS)
Conditions: immobilized VI16742
measuredMetric: Ki (µM)
Answers are plain numbers, in µM.

Query: Ki; subject: `CC(C)n1c(=O)ccc2cnc(Nc3ccc(OCCN)cc3)nc21`
223

----------
Molecular target: Erk1 (Homo sapiens)
Sequence (P27361 whole entry): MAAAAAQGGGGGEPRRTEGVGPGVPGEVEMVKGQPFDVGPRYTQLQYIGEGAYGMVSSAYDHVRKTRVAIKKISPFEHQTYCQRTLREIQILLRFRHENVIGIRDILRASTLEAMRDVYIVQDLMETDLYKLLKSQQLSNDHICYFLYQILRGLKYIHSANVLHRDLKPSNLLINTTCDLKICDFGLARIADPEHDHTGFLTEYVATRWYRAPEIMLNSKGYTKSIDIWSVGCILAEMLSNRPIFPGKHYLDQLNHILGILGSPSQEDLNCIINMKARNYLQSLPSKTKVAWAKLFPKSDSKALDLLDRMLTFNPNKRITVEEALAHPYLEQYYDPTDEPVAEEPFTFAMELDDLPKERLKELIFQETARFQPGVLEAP
Assay: binding to immobilized V16742 (IVA1/IVA2, HeLa lysate, MS)
Settings: Kd, Erk1; immobilized V16742
measuredMetric: Kd (µM)
Answers are plain numbers, in µM.

Query: Kd; subject: `CC(C)n1c(=O)ccc2cnc(Nc3ccc(OCCN)cc3)nc21`
64.4

----------
Biological target: IGF2BP1 (Homo sapiens)
Sequence (Q9NZI8 whole entry): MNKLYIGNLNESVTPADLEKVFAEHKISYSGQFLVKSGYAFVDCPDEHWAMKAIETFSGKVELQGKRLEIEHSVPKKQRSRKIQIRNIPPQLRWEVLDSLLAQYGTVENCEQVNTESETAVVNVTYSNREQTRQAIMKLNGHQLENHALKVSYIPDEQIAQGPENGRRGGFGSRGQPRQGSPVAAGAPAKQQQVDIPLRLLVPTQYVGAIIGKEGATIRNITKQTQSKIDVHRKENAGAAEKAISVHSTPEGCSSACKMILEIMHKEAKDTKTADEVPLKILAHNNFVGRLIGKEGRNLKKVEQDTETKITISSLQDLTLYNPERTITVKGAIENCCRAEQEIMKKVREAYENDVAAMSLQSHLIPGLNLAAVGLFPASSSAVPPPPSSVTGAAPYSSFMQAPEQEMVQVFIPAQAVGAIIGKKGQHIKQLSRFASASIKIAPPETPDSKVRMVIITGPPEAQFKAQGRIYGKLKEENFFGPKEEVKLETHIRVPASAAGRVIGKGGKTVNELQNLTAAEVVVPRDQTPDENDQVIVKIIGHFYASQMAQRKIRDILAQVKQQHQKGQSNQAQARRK
Assay: binding to AX14596 beads (HeLa lysate, SILAC MS)
measuredMetric: pKi
Answers are plain numbers, as −log10 of the molar value.

Query: pKi; subject: `COc1cc2ncnc(Nc3ccc(F)c(Cl)c3)c2cc1OCCCN`
3.44

----------
Biological target: Isoform 1 of Nicotinamide phosphoribosyltransferase (Homo sapiens)
Construct: endogenous in cells; host or cells: HeLa S3
Assay: binding to immobilized V16742 (IVA1/IVA2, HeLa lysate, MS)
Settings: Experiment 2, read-out: Kd
measuredMetric: Kd (µM)
Numbers only, in µM.

Find the measured Kd: item CC(C)n1c(=O)ccc2cnc(Nc3ccc(OCCN)cc3)nc21 [V16742] , target or system Isoform 1 of Nicotinamide phosphoribosyltransferase (Homo sapiens).
80.3

----------
Biological target: CHED (CDC2L5, IPI00456970) (Homo sapiens)
Construct: endogenous in cells
Sequence (Q14004 whole entry): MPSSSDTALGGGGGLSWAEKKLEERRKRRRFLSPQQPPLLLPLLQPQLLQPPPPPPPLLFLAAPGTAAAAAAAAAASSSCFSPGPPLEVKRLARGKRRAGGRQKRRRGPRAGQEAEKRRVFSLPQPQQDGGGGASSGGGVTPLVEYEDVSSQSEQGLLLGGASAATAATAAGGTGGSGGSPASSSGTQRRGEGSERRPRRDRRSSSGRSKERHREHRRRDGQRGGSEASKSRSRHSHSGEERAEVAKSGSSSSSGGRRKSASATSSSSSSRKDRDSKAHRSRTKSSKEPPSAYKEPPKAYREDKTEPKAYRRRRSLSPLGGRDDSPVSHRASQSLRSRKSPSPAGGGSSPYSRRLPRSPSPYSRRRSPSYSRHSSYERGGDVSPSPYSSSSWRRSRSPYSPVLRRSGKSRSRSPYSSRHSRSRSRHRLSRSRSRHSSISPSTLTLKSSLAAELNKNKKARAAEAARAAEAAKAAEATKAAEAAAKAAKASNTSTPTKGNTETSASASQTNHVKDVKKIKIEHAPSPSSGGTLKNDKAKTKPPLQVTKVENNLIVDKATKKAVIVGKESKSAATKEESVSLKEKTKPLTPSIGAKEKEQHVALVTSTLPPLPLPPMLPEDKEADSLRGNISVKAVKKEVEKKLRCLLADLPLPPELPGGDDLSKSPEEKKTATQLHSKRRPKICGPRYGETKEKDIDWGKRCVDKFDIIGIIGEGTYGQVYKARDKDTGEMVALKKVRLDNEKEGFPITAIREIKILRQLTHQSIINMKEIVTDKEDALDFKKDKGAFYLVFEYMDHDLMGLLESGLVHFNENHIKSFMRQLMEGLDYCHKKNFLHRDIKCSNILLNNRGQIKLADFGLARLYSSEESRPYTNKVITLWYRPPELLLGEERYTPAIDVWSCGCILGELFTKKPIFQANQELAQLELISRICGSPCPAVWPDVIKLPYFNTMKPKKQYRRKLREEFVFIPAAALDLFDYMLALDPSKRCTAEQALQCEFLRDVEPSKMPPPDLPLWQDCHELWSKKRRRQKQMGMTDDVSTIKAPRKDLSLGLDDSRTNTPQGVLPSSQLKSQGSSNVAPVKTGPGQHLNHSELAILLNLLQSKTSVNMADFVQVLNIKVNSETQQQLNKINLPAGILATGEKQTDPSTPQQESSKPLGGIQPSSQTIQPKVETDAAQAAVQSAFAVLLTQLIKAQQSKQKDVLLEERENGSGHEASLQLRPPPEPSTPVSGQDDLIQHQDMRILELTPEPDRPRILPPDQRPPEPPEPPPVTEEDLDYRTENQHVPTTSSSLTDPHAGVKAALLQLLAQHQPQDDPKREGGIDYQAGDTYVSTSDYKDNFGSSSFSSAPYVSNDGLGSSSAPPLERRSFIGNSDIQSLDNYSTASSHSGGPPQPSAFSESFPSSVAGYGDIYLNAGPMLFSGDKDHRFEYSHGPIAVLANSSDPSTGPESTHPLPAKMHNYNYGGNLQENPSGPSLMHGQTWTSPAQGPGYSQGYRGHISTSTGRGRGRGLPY
Test: binding to VI16742 beads (HeLa lysate, SILAC MS)
Conditions: immobilized VI16742
measuredMetric: pKi
Answers are plain numbers, as −log10 of the molar value.

Find the measured pKi: item `CC(C)n1c(=O)ccc2cnc(Nc3ccc(OCCN)cc3)nc21` , target or system CHED (CDC2L5, IPI00456970) (Homo sapiens).
4.07

----------
Target: NAMPT (Homo sapiens, UniProt P43490)
Sequence (P43490 whole entry): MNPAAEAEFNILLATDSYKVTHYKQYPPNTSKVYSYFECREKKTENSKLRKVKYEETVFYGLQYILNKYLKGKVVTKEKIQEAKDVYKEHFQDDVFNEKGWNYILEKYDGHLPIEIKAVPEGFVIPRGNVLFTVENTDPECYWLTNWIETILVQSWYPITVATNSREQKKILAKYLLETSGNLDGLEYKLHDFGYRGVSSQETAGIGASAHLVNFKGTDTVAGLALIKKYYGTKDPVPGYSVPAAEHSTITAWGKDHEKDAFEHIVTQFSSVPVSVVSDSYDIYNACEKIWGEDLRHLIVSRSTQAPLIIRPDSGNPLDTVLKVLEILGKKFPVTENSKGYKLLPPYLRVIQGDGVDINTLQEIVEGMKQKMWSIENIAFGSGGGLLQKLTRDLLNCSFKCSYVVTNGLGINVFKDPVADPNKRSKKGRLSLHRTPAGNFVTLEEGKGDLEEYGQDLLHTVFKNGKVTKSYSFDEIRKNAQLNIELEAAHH
Assay: binding to AX14596 beads (HeLa lysate, SILAC MS)
measuredMetric: Ki (µM)
Give bare numbers, in µM.

Query: Ki; subject: `COc1cc2ncnc(Nc3ccc(F)c(Cl)c3)c2cc1OCCCN`
41.2
